Ref: patent US8012957B2

Please consider the recorded pIC50 for cannabinoid CB1 receptor (Homo sapiens) in what follows.
# pIC50 = -log10(concentration in molar units)

molecule="CC(NC(=O)c1nn(-c2ccc(Cl)cc2Cl)c2c1CCN(C(=O)OC(C)(C)C)C/C2=C\\c1ccc(F)cc1)c1ccccc1 (centres unmarked) [Cpd 3]" measure=pIC50 experimental_value=7.21

[ask] Look up pIC50: CC(NC(=O)c1nn(-c2ccc(Cl)cc2Cl)c2c1CCN(C(=O)OC(C)(C)C)C/C2=C\c1ccc(F)cc1)c1ccccn1 (centres unmarked) [Cpd 4]
[reply] 7.30

----------
Target: cannabinoid CB2 receptor (Homo sapiens)
Construct: expressed in transfected cells; host or cells: SK-N-MC cells, pcDNA3 CB-2 (human), semi-purified membrane pellet
Sequence (P34972 whole entry): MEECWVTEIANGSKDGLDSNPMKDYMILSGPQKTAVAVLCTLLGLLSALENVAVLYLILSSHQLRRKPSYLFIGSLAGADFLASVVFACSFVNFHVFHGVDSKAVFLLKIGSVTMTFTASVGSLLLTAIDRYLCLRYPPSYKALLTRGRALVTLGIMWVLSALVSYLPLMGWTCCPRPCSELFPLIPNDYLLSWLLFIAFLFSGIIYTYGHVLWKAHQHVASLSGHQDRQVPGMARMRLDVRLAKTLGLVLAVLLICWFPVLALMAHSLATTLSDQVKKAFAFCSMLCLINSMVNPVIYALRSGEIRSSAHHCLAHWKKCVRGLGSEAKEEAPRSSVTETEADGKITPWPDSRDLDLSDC
Assay: Binding assay for CB2, [3H]-CP-55,940 displacement on membranes of transfected SK-N-MC cells
Conditions: test concentration of 0.2 μM
If the reported inhibition at 0.2 µM equals or exceeds 10%, assign Criterion met. If not, assign Criterion not met.

Solved cases below.
compound="CC(NC(=O)c1nn(-c2ccc(Cl)cc2Cl)c2c1CCN(C(=O)OC(C)(C)C)C/C2=C\\c1ccc(F)cc1)c1ccccn1 (stereo not drawn)" category="Criterion met"
compound=CC(C)(C)OC(=O)N1CCc2c(C(=O)N3CCCCC3)nn(-c3ccc(Cl)cc3Cl)c2/C(=C/c2ccc(F)cc2)C1 category="Criterion not met"
compound=CC(C)(C)OC(=O)N1CCc2c(C(=O)NN3CCCCC3)nn(-c3ccc(Cl)cc3Cl)c2/C(=C/c2ccc(F)cc2)C1 category="Criterion met"
compound="CC(NC(=O)c1nn(-c2ccc(Cl)cc2Cl)c2c1CCN(C(=O)OC(C)(C)C)C/C2=C\\c1ccc(F)cc1)c1ccccc1 (stereo not drawn)" category="Criterion met"

Now for a further compound.
[ask] // inclusive: inhibition at 0.2 µM at least 10%? input: COC(=O)N1CCc2c(C(=O)NN3CCCCC3)nn(-c3ccc(Cl)cc3Cl)c2/C(=C/c2ccc(F)cc2)C1
[reply] Criterion met
